tested on: Larven III der Magenbremse, Gasterophilus intestinalis; experiment: In vitro test on larvae III of Gasterophilus intestinalis (5 min immersion, mortality count); details: 96 h after treatment; 10 larvae immersed 5 min in 0,1 % active dilution; kept at about 37°C
So I've got a bunch of molecules here, and I need their Zahl toter Larven Stunden nach Behandlung values.
In your answer, state the number alone without any accompanying words.

In: Zahl toter Larven Stunden nach Behandlung lookup needed for CC1(C)[C@H](C(=O)O[C@H](C#N)c2cccc(Oc3ccccc3)c2)[C@@H]1C(Br)C(Cl)(Cl)Br (stereo partly shown) , thanks.
Out: 10

In: Zahl toter Larven Stunden nach Behandlung lookup needed for CC1(C)[C@H](C(=O)O[C@H](C#N)c2cccc(Oc3ccccc3)c2)[C@@H]1C=C(Cl)Cl , thanks.
Out: 10

In: Zahl toter Larven Stunden nach Behandlung lookup needed for CC1(C)[C@H](C(=O)O[C@H](C#N)c2cccc(Oc3ccccc3)c2)[C@@H]1C=C(Br)Br , thanks.
Out: 10
